Biological target: Polyunsaturated fatty acid 5-lipoxygenase (Homo sapiens)
Sequence (whole entry): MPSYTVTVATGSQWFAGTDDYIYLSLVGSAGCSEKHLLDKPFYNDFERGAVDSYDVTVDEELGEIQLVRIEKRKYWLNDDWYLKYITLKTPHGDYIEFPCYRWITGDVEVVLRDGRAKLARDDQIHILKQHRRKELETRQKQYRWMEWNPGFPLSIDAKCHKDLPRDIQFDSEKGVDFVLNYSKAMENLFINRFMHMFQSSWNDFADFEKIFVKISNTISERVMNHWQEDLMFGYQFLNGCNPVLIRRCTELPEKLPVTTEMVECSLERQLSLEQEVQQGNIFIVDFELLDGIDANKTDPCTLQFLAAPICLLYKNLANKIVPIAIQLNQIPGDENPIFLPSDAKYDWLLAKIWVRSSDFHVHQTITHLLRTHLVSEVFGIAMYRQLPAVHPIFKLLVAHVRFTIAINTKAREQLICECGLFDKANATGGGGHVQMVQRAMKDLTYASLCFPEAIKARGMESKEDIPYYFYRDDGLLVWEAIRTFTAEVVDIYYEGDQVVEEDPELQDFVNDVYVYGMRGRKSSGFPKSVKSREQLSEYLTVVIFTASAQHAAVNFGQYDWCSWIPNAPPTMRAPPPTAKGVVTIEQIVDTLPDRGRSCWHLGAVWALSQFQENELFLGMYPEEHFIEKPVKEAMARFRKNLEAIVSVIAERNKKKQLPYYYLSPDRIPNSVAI
Test: Inhibition of 5-LO in human neutrophils using arachidonic acid as substrate assessed as residual activity preincubated for 15 mins followed by substrate addition measured after 10 mins in presence of Ca2+ ionophore A23187 by HPLC analysis
assay-endpoint: Activity (%)

[[record]]
smiles_repr = "Cc1ccc(S(=O)(=O)N(Cc2c(F)cccc2Cl)c2ccc(C(=O)O)cc2)cc1"
tested_target = "Polyunsaturated fatty acid 5-lipoxygenase (Homo sapiens)"
reported_value = 75.4

[[record]]
smiles_repr = "Cc1ccc(S(=O)(=O)N(CC2CCCCC2)c2ccc(C(=O)O)cc2)cc1"
tested_target = "Polyunsaturated fatty acid 5-lipoxygenase (Homo sapiens)"
reported_value = 76.9

[[record]]
smiles_repr = "O=C(O)c1ccc(N(Cc2cccs2)S(=O)(=O)c2ccc(C(=O)O)cc2)cc1"
tested_target = "Polyunsaturated fatty acid 5-lipoxygenase (Homo sapiens)"
reported_value = 112

[[record]]
smiles_repr = "O=C(O)c1ccc(N(Cc2cccs2)S(=O)(=O)c2ccc(Cl)cc2)cc1"
tested_target = "Polyunsaturated fatty acid 5-lipoxygenase (Homo sapiens)"
reported_value = 97.2

[[record]]
smiles_repr = "COc1ccc(CN(c2ccc(C(=O)O)cc2)S(=O)(=O)c2ccc(C)cc2)cc1OC"
tested_target = "Polyunsaturated fatty acid 5-lipoxygenase (Homo sapiens)"
reported_value = 110

